target: bradykinin 1 receptor (B1R) of the rat (Rattus norvegicus, UniProt P97583); construct: expressed in transfected cells; assay: FLIPR Ca2+ assay, B1R antagonism, rat; assay type: cell-based; conditions: CHO-K1, 10 μM test substance; CHO K1 cells with rat B1R gene (rB1R cells); Des-Arg9-bradykinin at EC80; % inhibition compared with the maximum achievable inhibition; read-out: B1R antagonism, rat [10 μM] % inhibition
Sequence (P97583 whole entry): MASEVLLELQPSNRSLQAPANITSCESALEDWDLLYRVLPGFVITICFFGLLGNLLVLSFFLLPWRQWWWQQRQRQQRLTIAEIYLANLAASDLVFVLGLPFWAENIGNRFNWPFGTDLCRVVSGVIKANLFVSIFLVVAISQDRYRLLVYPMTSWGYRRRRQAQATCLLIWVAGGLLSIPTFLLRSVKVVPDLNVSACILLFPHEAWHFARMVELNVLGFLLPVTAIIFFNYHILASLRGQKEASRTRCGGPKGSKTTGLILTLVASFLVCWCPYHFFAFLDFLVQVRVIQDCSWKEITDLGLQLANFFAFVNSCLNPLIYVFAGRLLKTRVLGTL
Property measured: inhibition at 10 µM (%)
Report as a plain number; the unit % is understood.

Record COc1cc(C)c(S(=O)(=O)N2CCCCC2COCC(=O)N2CCC(OCCN3CCCC3)(c3ccc(F)cc3)CC2)c(C)c1 (centres unmarked) , field inhibition at 10 µM: 98

inhibition at 10 µM in this record for O=C(CC1CCCCN1S(=O)(=O)c1cccc(C(F)(F)F)c1)N1CCC(OCCN2CCCCC2)(c2cccnc2)CC1 (centres unmarked) : 44

inhibition at 10 µM reading for O=C(CC(NS(=O)(=O)c1ccc2ccccc2c1)c1ccccc1)N1CCC(OCCN2CCCC2)(c2ccc(C(F)(F)F)cc2)CC1 (centres unmarked) : 94

Please fill in: inhibition at 10 µM reported for COc1cc(C)c(S(=O)(=O)N2CCCCC2COCC(=O)N2CCC(OCCN3CCCC3)(c3ccncc3)CC2)c(C)c1 (centres unmarked) = 103

The recorded inhibition at 10 µM for entry COc1cc(C)c(S(=O)(=O)N2CCCC[C@H]2COCC(=O)N2CCCC(OCCN3CCCC3)(c3cccnc3)CC2)c(C)c1 (some centres unmarked) equals 103

Short answer for CN1CCN(CCCOC2(c3cccnc3)CCN(C(=O)COCC3CCc4ccccc4N3S(=O)(=O)c3ccc(Cl)c(Cl)c3)CC2)CC1 (centres unmarked) : inhibition at 10 µM was 99

Please fill in: inhibition at 10 µM reported for Cc1cc(S(=O)(=O)N2CCCCC2CCC(=O)N2CCC(OCCN3CCCC3)(c3cccnc3)CC2)c(C)cc1Cl (centres unmarked) = 72

The reported value for COc1cc(C)c(S(=O)(=O)N2CCCCC2COCC(=O)N2CCC(OCCN3CCCCC3)(c3cccnc3)CC2)c(C)c1 (centres unmarked) in terms of inhibition at 10 µM is 102

The recorded inhibition at 10 µM for entry COc1cc(C)c(S(=O)(=O)N2CCCCC2COCC(=O)N2CCC(OCCCN3CCCC3)(c3cccnc3)CC2)c(C)c1 (centres unmarked) equals 102

Value of measured inhibition at 10 µM for the entry O=C(CC1CCCCN1S(=O)(=O)c1cccc(C(F)(F)F)c1)N1CCC(OCCN2CCCC2)(c2ccc(C(F)(F)F)cc2)CC1 (centres unmarked) : 100

Form field inhibition at 10 µM, entry CN1CCN(CCCOC2(c3cccnc3)CCN(C(=O)CC3CCCCN3S(=O)(=O)c3cccc(C(F)(F)F)c3)CC2)CC1 (centres unmarked) : 97

The recorded inhibition at 10 µM for entry COc1cc(C)c(S(=O)(=O)N2CCCCC2COCC(=O)N2CCC(OCCN3CCN(C)CC3)(c3cccnc3)CC2)c(C)c1 (centres unmarked) equals 102

So for COc1cc(C)c(S(=O)(=O)N2CCCC[C@H]2COCC(=O)N2CCC(OCCn3cncn3)(c3cccnc3)CC2)c(C)c1 , the logged inhibition at 10 µM turned out to be 102

Per the records, this molecule ( COc1cc(C)c(S(=O)(=O)N(C)CCOCC(=O)N2CCC(OCCN3CCCCC3)(c3cccnc3)CC2)c(C)c1 ) has inhibition at 10 µM equal to 102

Measured values drawn from patent US8318769B2 for this set.
